Provide the recorded T/C for the entries that follow.
System: BDF1 mice, Adenocarcinoma 755 s.c., tumor weight T/C
test method notes: NCI In Vivo Anticancer Drug Screen. Data for tumor model Adenocarcinoma 755 (subcutaneous) in B6D2F1 (BDF1) mice
protocol conditions: endpoint: mean tumor weight; dose: 2.5 mg/kg/injection; schedule: Q01DX011 (ip); vehicle: carboxymethylcellulose (CMC); higher = larger tumour
Method: The antitumor activity of compounds was measured in mice bearing transplantable tumors. Survival or tumor size were measured and the results are expressed as the measurement made in the treated group (T) divided by the measurement made in the vehicle treated control group (C). The tumor model used in this assay is Adenocarcinoma 755 (subcutaneous) in B6D2F1 (BDF1) mice

Lookup: Look at this compound and give its reported T/C. CN(N=O)C(=O)C1CC(=O)NC(=O)C1
Found: 39 % of control

Lookup: Next entry: COC12C(COC(N)=O)C3=C(C(=O)C(C)=C(N)C3=O)N1CC1C2N1C (stereo not drawn)
Found: 52 % of control

Lookup: Next entry: [I][Hg][CH2]C1OCCOC1[CH2][Hg][I] (stereo not drawn)
Found: 73 % of control

Lookup: Next entry: Ic1ncnc2nc[nH]c12
Found: 90 % of control

Lookup: Next entry: CCOC(=O)NP(=O)(N1CC1)N1CC1
Found: 67 % of control

Lookup: Next entry: Nc1ncnc2[nH]ncc12
Found: 32 % of control

Lookup: Next entry: Clc1ncnc2nc[nH]c12
Found: 66 % of control

Lookup: Next entry: CCCCn1cnc2c(=S)nc(N)[nH]c21
Found: 2 % of control
